test: activity coefficient (dimensionless); of the first substance listed, at infinite dilution; xn = mol fraction of the nth substance listed; details: 333.15 K; 101 kPa; Liquid; Chromatography; x1 = 0
Recorded activity coefficient determines the group label, using 0: < 0.8; 1: ≥ 0.8 and < 2; 2: ≥ 2

compound="CCC[N+](=O)[O-] [1-nitropropane] + CCCCCCCCCCn1cc[n+](CCCCCCCCCC)c1C.O=S(=O)([N-]S(=O)(=O)C(F)(F)F)C(F)(F)F" answer_label=0
compound="CCCCCCC [heptane] + CCCCCCCCCCn1cc[n+](CCCCCCCCCC)c1C.O=S(=O)([N-]S(=O)(=O)C(F)(F)F)C(F)(F)F" answer_label=2
compound="Cc1ccc(C)cc1 [1,4-dimethylbenzene] + CCCCCCCCCCn1cc[n+](CCCCCCCCCC)c1C.O=S(=O)([N-]S(=O)(=O)C(F)(F)F)C(F)(F)F" answer_label=0
compound="CC1CCCC1 [methylcyclopentane] + CCCCCCCCCCn1cc[n+](CCCCCCCCCC)c1C.O=S(=O)([N-]S(=O)(=O)C(F)(F)F)C(F)(F)F" answer_label=1
compound="CCCCCCCCC [nonane] + CCCCCCCCCCn1cc[n+](CCCCCCCCCC)c1C.O=S(=O)([N-]S(=O)(=O)C(F)(F)F)C(F)(F)F" answer_label=2
compound="CCOCC [diethyl ether] + CCCCCCCCCCn1cc[n+](CCCCCCCCCC)c1C.O=S(=O)([N-]S(=O)(=O)C(F)(F)F)C(F)(F)F" answer_label=0
compound="CCc1ccccc1 [ethylbenzene] + CCCCCCCCCCn1cc[n+](CCCCCCCCCC)c1C.O=S(=O)([N-]S(=O)(=O)C(F)(F)F)C(F)(F)F" answer_label=0
compound="C1CCCCC1 [cyclohexane] + CCCCCCCCCCn1cc[n+](CCCCCCCCCC)c1C.O=S(=O)([N-]S(=O)(=O)C(F)(F)F)C(F)(F)F" answer_label=1
compound="C#CCCCCC [1-heptyne] + CCCCCCCCCCn1cc[n+](CCCCCCCCCC)c1C.O=S(=O)([N-]S(=O)(=O)C(F)(F)F)C(F)(F)F" answer_label=1
compound="CCCCCCCCCC [decane] + CCCCCCCCCCn1cc[n+](CCCCCCCCCC)c1C.O=S(=O)([N-]S(=O)(=O)C(F)(F)F)C(F)(F)F" answer_label=2
compound="CC1CCCCC1 [methylcyclohexane] + CCCCCCCCCCn1cc[n+](CCCCCCCCCC)c1C.O=S(=O)([N-]S(=O)(=O)C(F)(F)F)C(F)(F)F" answer_label=1
compound="CCC(C)CC [3-methylpentane] + CCCCCCCCCCn1cc[n+](CCCCCCCCCC)c1C.O=S(=O)([N-]S(=O)(=O)C(F)(F)F)C(F)(F)F" answer_label=1
